Cited source for all entries: a melting point compilation (Tetko et al.; mined from patent text by program, amines drawn as free bases though some values may be those of a salt)

In this section we review reported melting point values for a set of molecules.

// `CCOC(=O)c1ccccc1Sc1ccn(C(=O)N(CC)CC)n1` : melting point value = 65 to 67 °C

====

Reported melting point by item:

[[record]]
compound = "CC(=O)Oc1c(C(C)(C)C)cc(O)c(C=O)c1C(C)(C)C"
result = "79 °C"

[[record]]
compound = "Nc1sc2c(c1C(=O)c1ccc(Cl)cc1)CCN(CCCc1ccccc1)C2"
result = "98 to 100 °C"


The compound identified as `CCC(C)(C)Nc1c(NCc2ccc(F)cc2F)c(=O)c1=O` registered its melting point at 242 to 244 °C

Input `Cc1nc(N)c2nc(C)n(CC3(O)CCC3)c2c1C` . Output melting point: > 250 °C

Documented melting point of `CC(=O)Oc1ccc(C=CC(=O)N(c2ccccc2)c2ccccc2)cc1[N+](=O)[O-]` : 170 to 172 °C

The compound listed as `Oc1ccc(-c2nsc3ccccc23)c(Cl)c1Cl` shows melting point equal to 224 to 226 °C

The compound listed as `CCOC(=O)Nc1ccn2cc(C)nc2c1I` has a reported melting point of 148 °C

melting point in this record for `CCOc1c(C)c(C)c(OC)c(CN(C)CCOc2cc(C)ccc2C(C)C)c1C` : 115 to 120 °C

For this compound ( `CCCc1ccc(NC(=O)c2cccnc2NCc2ccc(OC)nc2)cc1C(F)(F)F` ), measured melting point is 51 to 61 °C

Data point: `Cn1nccc1-c1ccc(-c2cnc3[nH]cc(C(=O)C(C)(C)C)c3n2)cc1` ; melting point = 257 to 258 °C

`Cn1ncc2c1-c1c(Cc3ccccc3)sc(C(N)=O)c1CC2` has a reported melting point of 96 to 97 °C

response.value for `O=C1CC(c2ccccc2OCc2ccccc2)=Nc2ccc(N3CCCC3)cc21` (field: melting point) = 293 to 295 °C

Short answer for COc1cc2ncnc(N3CCC(C(O)CN4CCC(C)NS4(=O)=O)CC3)c2cc1OC (centres undefined) : melting point was 189 to 193 °C

Entry `Cc1nc2cc(-c3cccc(C=C4SC(=O)NC4=O)c3)cc(C34CC5CC(CC(C5)C3)C4)c2o1` ; melting point = 355 to 358 °C

# melting point (compound: CN1CCN(CCc2ccc(Nc3ncc4c(n3)-c3ccccc3C(c3ccc(Cl)c(Cl)c3)C4)cc2)CC1 (centres undefined) ) is 119 to 121 °C

// melting point lookup, compound = `CNC(=O)c1sc(C(C)(C)C)cc1NC(=O)Nc1ccc(C(C)C)cc1` , result: 113 to 120 °C

Sure, the documented melting point for `COCCNC(=O)c1ccc(NS(=O)(=O)c2ccc(F)cc2)cn1` is 154 °C

So for `CCOC(=O)c1nc(-c2ccc(F)cc2)c(-c2ccc(S(C)(=O)=O)cc2)s1` , the logged melting point turned out to be 173 to 174 °C

For `COc1cccc(NC(=O)c2ccc([N+](=O)[O-])cc2)c1` the compound record lists melting point as 189 to 191 °C

Noted for `Cc1ccsc1-c1[nH]nc2c1C(=O)c1c(NC(N)=O)cccc1-2` : its melting point reads 270 °C

The reported value for `COC(=O)C(O)=CC(=O)c1cn(Cc2ccc(F)cc2)c(=O)n(Cc2ccc(F)cc2)c1=O` in terms of melting point is 171 to 173 °C

Summary for this compound, CCOc1ccc(C2(C(=O)O)CC2(C)C)cc1 (centres undefined) : melting point is 104 to 105 °C
